- target of assay: Smurf-1 (Homo sapiens, UniProt Q9HCE7)
- Sequence (Q9HCE7 whole entry): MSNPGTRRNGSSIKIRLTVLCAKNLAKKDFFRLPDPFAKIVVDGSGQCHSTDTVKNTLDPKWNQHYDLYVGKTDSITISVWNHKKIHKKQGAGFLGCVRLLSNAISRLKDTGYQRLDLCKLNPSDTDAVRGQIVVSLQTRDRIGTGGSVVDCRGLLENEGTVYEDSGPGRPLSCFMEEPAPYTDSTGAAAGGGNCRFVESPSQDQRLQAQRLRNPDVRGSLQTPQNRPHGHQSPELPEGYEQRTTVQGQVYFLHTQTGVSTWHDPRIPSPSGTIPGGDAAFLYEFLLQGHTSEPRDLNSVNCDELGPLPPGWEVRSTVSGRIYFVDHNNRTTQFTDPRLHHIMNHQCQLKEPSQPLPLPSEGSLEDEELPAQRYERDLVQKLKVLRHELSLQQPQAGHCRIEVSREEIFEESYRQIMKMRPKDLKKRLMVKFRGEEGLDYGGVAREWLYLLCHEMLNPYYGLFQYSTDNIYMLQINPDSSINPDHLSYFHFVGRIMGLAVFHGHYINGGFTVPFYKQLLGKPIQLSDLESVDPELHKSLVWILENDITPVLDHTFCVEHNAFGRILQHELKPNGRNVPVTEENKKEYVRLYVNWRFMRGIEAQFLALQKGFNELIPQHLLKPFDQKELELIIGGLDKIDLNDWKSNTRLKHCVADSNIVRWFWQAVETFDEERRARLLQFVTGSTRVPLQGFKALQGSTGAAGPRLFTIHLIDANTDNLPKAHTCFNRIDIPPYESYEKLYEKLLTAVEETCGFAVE
- assay comment: biochemical
- Format: biochemical
readout label: pIC50
Keep in mind that pIC50 stands for -log10 of concentration in molar terms.

Input line: Field request: pIC50 | item: COc1ccc2c(c1)OCCCc1c(C(=O)Nc3c(C)n(C)n(C4CCCCC4)c3=O)noc1-2 [Example 54]
Output line: 6.72

----------
- target of assay: Smurf-2 (Homo sapiens)
- Sequence (Q9HAU4 whole entry, species assumed): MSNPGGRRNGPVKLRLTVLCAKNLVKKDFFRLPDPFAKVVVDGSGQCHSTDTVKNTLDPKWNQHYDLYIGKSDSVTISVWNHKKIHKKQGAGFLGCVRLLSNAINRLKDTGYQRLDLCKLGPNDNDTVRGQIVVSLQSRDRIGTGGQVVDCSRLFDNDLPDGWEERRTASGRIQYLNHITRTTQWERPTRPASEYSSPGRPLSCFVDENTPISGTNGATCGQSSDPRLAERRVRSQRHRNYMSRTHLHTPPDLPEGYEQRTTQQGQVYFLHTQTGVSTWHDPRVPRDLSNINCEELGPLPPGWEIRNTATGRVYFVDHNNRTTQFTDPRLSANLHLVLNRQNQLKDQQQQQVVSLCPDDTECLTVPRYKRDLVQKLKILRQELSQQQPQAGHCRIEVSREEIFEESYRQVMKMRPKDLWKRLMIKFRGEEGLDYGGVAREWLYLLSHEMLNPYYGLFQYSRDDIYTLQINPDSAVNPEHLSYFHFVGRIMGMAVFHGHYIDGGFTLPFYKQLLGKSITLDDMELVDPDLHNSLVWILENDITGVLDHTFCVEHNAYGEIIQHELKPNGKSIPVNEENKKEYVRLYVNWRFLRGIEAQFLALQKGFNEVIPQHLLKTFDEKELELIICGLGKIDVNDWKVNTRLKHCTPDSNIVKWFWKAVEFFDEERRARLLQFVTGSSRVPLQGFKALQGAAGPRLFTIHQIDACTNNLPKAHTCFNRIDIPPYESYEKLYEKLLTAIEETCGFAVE
- assay comment: HECT E3 ligase autoubiquitinylation TR-FRET assay, Smurf-2
- Assay type: biochemical
- stated conditions: biochemical autoubiquitinylation TR-FRET, 45 min incubation, 8-point dose-response 3 nM to 10 uM; read-out: Smurf-2/IC50
Assign IC50 to each entry below.
Reply with just the number (in µM).

Input line: Field request: IC50 | item: COc1ccc2c(c1)CCCc1c(C(=O)Nc3c(C)n(C)n(-c4ccc(F)cc4)c3=O)noc1-2
Output line: 8.55

Input line: Field request: IC50 | item: Cc1c(NC(=O)c2noc3c2CCCc2cc(OC(F)(F)F)ccc2-3)c(=O)n(C2CCCCC2)n1C
Output line: 0.175

Input line: Field request: IC50 | item: Cc1c(NC(=O)c2noc3c2CCc2cc(CC(C)C)ccc2-3)c(=O)n(-c2ccccc2)n1C
Output line: 5.6

Input line: Field request: IC50 | item: COc1ccc2c(c1)CCCc1c(C(=O)Nc3c(C)n(C)n(C4CCCCC4)c3=O)noc1-2
Output line: 1.05

Input line: Field request: IC50 | item: Cc1c(NC(=O)c2noc3c2CCCc2cc(OC(F)(F)F)ccc2-3)c(=O)n(-c2ccccc2F)n1C
Output line: 0.83

Input line: Field request: IC50 | item: Cc1c(NC(=O)c2noc3c2CCCc2cc(OC(F)(F)F)ccc2-3)c(=O)n(-c2c(Cl)cccc2Cl)n1C
Output line: 0.39

Input line: Field request: IC50 | item: Cc1c(NC(=O)c2noc3c2CCCc2cc(OC(F)(F)F)ccc2-3)c(=O)n(-c2ccccc2)n1C
Output line: 5.55

Input line: Field request: IC50 | item: COc1ccc2c(c1)CCCc1c(C(=O)Nc3c(C)n(C)n(C4CCCC4)c3=O)noc1-2
Output line: 9.5

Input line: Field request: IC50 | item: CCc1ccc2c(c1)CCCc1c(C(=O)Nc3c(C)n(C)n(-c4ccc(F)cc4)c3=O)noc1-2
Output line: 7.85

Input line: Field request: IC50 | item: COc1ccc2c(c1)CCCCc1c(C(=O)Nc3c(C)n(C)n(C4CCCCC4)c3=O)noc1-2
Output line: 8.35

Input line: Field request: IC50 | item: COc1ccc2c(c1)CCCc1c(C(=O)Nc3c(C)n(C)n(-c4ccccc4Cl)c3=O)noc1-2
Output line: 5.8

Input line: Field request: IC50 | item: Cc1c(NC(=O)c2noc3c2CCSc2cc(OC(F)(F)F)ccc2-3)c(=O)n(C2CCCCC2)n1C
Output line: 0.725

Input line: Field request: IC50 | item: CCn1c(C)c(NC(=O)c2noc3c2CCCc2cc(OC)ccc2-3)c(=O)n1-c1ccccc1Cl
Output line: 6.85

----------
- target of assay: Smurf-2 (Homo sapiens)
- assay comment: HECT E3 ligase autoubiquitinylation TR-FRET assay, Smurf-2
- Assay type: biochemical
pIC50: −log10 of the molar value.
Assign pIC50 to each entry below.

Input line: Field request: pIC50 | item: COc1ccc(Cn2c(=O)c(NC(=O)c3noc4c3CCCc3cc(OC)ccc3-4)c(C)n2C)cc1 [Example 55]
Output line: < 5.00

Input line: Field request: pIC50 | item: COc1ccc2c(c1)CCCCc1c(C(=O)Nc3c(C)n(C)n(-c4ccccc4F)c3=O)noc1-2 [Example 53]
Output line: < 5.00

Input line: Field request: pIC50 | item: COc1ccc2c(c1)CCCc1c(C(=O)Nc3c(C)n(C)n(CC4CCCCC4)c3=O)noc1-2 [Example 37]
Output line: < 5.00

----------
- target of assay: UniProtKB Q9HCE7
- assay comment: biochemical
- Format: biochemical
- stated conditions: biochemical autoubiquitinylation TR-FRET, 45 min incubation, 8-point dose-response 3 nM to 10 uM
readout label: IC50 (nM)
Reply with just the number (in nM).

Input line: Field request: IC50 | item: COc1ccc2c(c1)CCCCc1c(C(=O)Nc3c(C)n(C)n(C4CCCCC4)c3=O)noc1-2
Output line: 91.8

Input line: Field request: IC50 | item: COc1ccc2c(c1)CCCc1c(C(=O)Nc3c(C)n(C)n(-c4ccc(C)cc4C)c3=O)noc1-2
Output line: 495

Input line: Field request: IC50 | item: Cc1c(NC(=O)c2noc3c2CCSc2cc(OC(F)(F)F)ccc2-3)c(=O)n(-c2ccccc2F)n1C
Output line: 31.5

Input line: Field request: IC50 | item: COc1ccc2c(c1)CCCc1c(C(=O)Nc3c(C)n(C)n(CC4CCCCC4)c3=O)noc1-2
Output line: 1040

Input line: Field request: IC50 | item: COc1ccc2c(c1)CCCc1c(C(=O)Nc3c(C)n(C)n(C4CCCCC4)c3=O)noc1-2
Output line: 5.9

Input line: Field request: IC50 | item: COc1ccc2c(c1)CCCc1c(C(=O)Nc3c(C)n(C)n(-c4ccc(F)cc4)c3=O)noc1-2
Output line: 410

Input line: Field request: IC50 | item: CCc1ccc2c(c1)CCc1c(C(=O)Nc3c(C)n(C)n(-c4ccccc4)c3=O)noc1-2
Output line: 568

Input line: Field request: IC50 | item: CCn1c(C)c(NC(=O)c2noc3c2CCCc2cc(OC)ccc2-3)c(=O)n1-c1ccccc1Cl
Output line: 680

Input line: Field request: IC50 | item: Cc1c(NC(=O)c2noc3c2CCCc2cc(OC(F)(F)F)ccc2-3)c(=O)n(C2CCCCC2)n1C
Output line: 2.2

Input line: Field request: IC50 | item: Cc1c(NC(=O)c2noc3c2CCCc2cc(OC(F)(F)F)ccc2-3)c(=O)n(Cc2ccccc2F)n1C
Output line: 58

Input line: Field request: IC50 | item: Cc1c(NC(=O)c2noc3c2CCCc2cc(OC(F)(F)F)ccc2-3)c(=O)n(-c2c(Cl)cccc2Cl)n1C
Output line: 4.5

Input line: Field request: IC50 | item: COc1ccc2c(c1)CCCc1c(C(=O)Nc3c(C)n(C)n(Cc4ccc(F)cc4)c3=O)noc1-2
Output line: 2700

Input line: Field request: IC50 | item: COc1ccc2c(c1)CCCc1c(C(=O)Nc3c(C)n(C)n(C4CCCC4)c3=O)noc1-2
Output line: 29.2

Input line: Field request: IC50 | item: COc1ccc2c(c1)CCCc1c(C(=O)Nc3c(C)n(C)n(-c4ccccc4Cl)c3=O)noc1-2
Output line: 125

Input line: Field request: IC50 | item: Cc1c(NC(=O)c2noc3c2CCCCc2ccccc2-3)c(=O)n(-c2ccccc2)n1C
Output line: 658

Input line: Field request: IC50 | item: Cc1c(NC(=O)c2noc3c2CCCc2cc(OC(F)(F)F)ccc2-3)c(=O)n(-c2ccccc2F)n1C
Output line: 17

Input line: Field request: IC50 | item: Cc1c(NC(=O)c2noc3c2CCSc2cc(OC(F)(F)F)ccc2-3)c(=O)n(C2CCCCC2)n1C
Output line: 2.6

Input line: Field request: IC50 | item: COc1ccc2c(c1)CCCCc1c(C(=O)Nc3c(C)n(C)n(-c4ccccc4F)c3=O)noc1-2
Output line: 132

Input line: Field request: IC50 | item: COc1ccc2c(c1)CCCc1c(C(=O)Nc3c(C(F)(F)F)n(C)n(-c4ccccc4)c3=O)noc1-2
Output line: 865

Input line: Field request: IC50 | item: Cc1c(NC(=O)c2noc3c2CCCc2cc(OC(F)(F)F)ccc2-3)c(=O)n(-c2ccccc2)n1C
Output line: 200

Input line: Field request: IC50 | item: Cc1c(NC(=O)c2noc3c2CCSc2ccccc2-3)c(=O)n(-c2ccccc2)n1C
Output line: 1130

Input line: Field request: IC50 | item: COc1ccc2c(c1)CCCc1c(C(=O)Nc3c(C)n(C)n(-c4ccc(Cl)cc4)c3=O)noc1-2
Output line: 1060

Input line: Field request: IC50 | item: COc1ccc(Cn2c(=O)c(NC(=O)c3noc4c3CCCc3cc(OC)ccc3-4)c(C)n2C)cc1
Output line: 9900

Input line: Field request: IC50 | item: Cc1ccc(-n2c(=O)c(NC(=O)c3noc4c3CCc3cc(OC(C)C)ccc3-4)c(C)n2C)cc1
Output line: 1420

Input line: Field request: IC50 | item: Cc1c(NC(=O)c2noc3c2CC2C(c4ccccc4-3)C2(Cl)Cl)c(=O)n(-c2ccccc2)n1C (centres unmarked)
Output line: 462

Input line: Field request: IC50 | item: COc1ccc2c(c1)CCCc1c(C(=O)Nc3c(C)n(C)n(Cc4ccccc4)c3=O)noc1-2
Output line: 695

Input line: Field request: IC50 | item: COc1ccc2c(c1)CCCc1c(C(=O)Nc3c(C)n(C)n(-c4cccc(Cl)c4)c3=O)noc1-2
Output line: 660

Input line: Field request: IC50 | item: Cc1c(NC(=O)c2noc3c2CCc2cc(CC(C)C)ccc2-3)c(=O)n(-c2ccccc2)n1C
Output line: 240

Input line: Field request: IC50 | item: CCc1ccc2c(c1)CCCc1c(C(=O)Nc3c(C)n(C)n(-c4ccc(F)cc4)c3=O)noc1-2
Output line: 272
